observationType: melting point

Example compounds with recorded melting point:
# compound, melting point
records = [
    ("Cc1nc(C)c(COC(=O)[C@]23CC[C@@H](C)[C@H](C)C2C2=CCC4[C@@]5(C)CC[C@H](OC(=O)c6nc(C)c(C)nc6C)C(C)(C)C5CC[C@@]4(C)[C@]2(C)CC3)nc1C (stereo partly drawn)", "168.2 to 168.9 °C"),
    ("Cc1nc(C)c(C(=O)OC2CCC3(C)C(CCC4(C)C3CC=C3C5CC(C)(C)CCC5(C(=O)OCc5ccccc5)CCC34C)C2(C)C)nc1C (stereo not drawn)", "194.2 to 194.9 °C"),
]

// below: melting point requested for another compound
Look up melting point: Cc1nc(C)c(C(=O)OC2CCC3(C)C(CCC4(C)C3CC=C3C5C(C)C(C)CCC5(C(=O)O)CCC34C)C2(C)C)nc1C (stereo not drawn)
305.9 to 306.6 °C

====

- Tested on: Madin-Darby canine kidney cell line (MDCK)
- experimentDescription: MTT cytotoxicity (nephrotoxicity/selectivity) assay, MDCK
- Assay type: cell-based
- testParameters: Canis lupus familiaris, maximal tested concentration 20.0 μM, toxicity to MDCK kidney cells
observationType: IC50

Observe how each entry below is paired with its result.
# molecule, observationType, observed
measured = [
    ("Cc1nc(C)c(COC(=O)[C@@]2(C)CC[C@]3(C)CC[C@]4(C)C(=CC(=O)C5[C@@]6(C)CC[C@H](O)C(C)(C)C6CC[C@]54C)C3C2)nc1C (stereo partly drawn)", "IC50", "> 20 µM"),
    ("Cc1nc(C)c(COC(=O)[C@]23CCC(C)(C)CC2C2=CCC4[C@@]5(C)CC[C@H](OC(=O)c6nc(C)c(C)nc6C)C(C)(C)C5CC[C@@]4(C)[C@]2(C)CC3)nc1C (stereo partly drawn)", "IC50", "> 20 µM"),
    ("C=C(C)[C@@H]1CC[C@]2(C(=O)OCc3nc(C)c(C)nc3C)CC[C@]3(C)C(CCC4[C@@]5(C)CC[C@H](OC(=O)c6nc(C)c(C)nc6C)C(C)(C)C5CC[C@]43C)C12 (stereo partly drawn)", "IC50", "> 20 µM"),
    ("Cc1nc(C)c(C(=O)OC2CCC3(C)C(CCC4(C)C3CC=C3C5CC(C)(C)CCC5(C(=O)O)CCC34C)C2(C)C)nc1C (stereo not drawn)", "IC50", "16.4 µM"),
    ("Cc1nc(C)c(C(=O)OC2CCC3(C)C(CCC4(C)C3CC=C3C5C(C)C(C)CCC5(C(=O)O)CCC34C)C2(C)C)nc1C (stereo not drawn)", "IC50", "> 20 µM"),
]

Next item in the queue.
Which value of IC50 has been reported for Cc1nc(C)c(COC(=O)[C@]23CC[C@@H](C)[C@H](C)C2C2=CCC4[C@@]5(C)CC[C@H](O)C(C)(C)C5CC[C@@]4(C)[C@]2(C)CC3)nc1C (stereo partly drawn) in the records?
> 20 µM

====

- Test system: Bel-7402 (human hepatocellular carcinoma)
- experimentDescription: MTT cytotoxicity assay, Bel-7402
- Type: cell-based
- testParameters: Homo sapiens, Bel-7402, 72 h, maximal tested concentration 20.0 μM
- Method: The cytotoxicity of ligustrazine-triterpenes derivatives was evaluated on five tumor cell lines (Bel-7402, HepG2, HT-29, Hela, and MCF-7) using the standard MTT assay. In the study, the antineoplastic drug cisplatin (DDP) was selected as the positive control. The MDCK cell line was used to test the toxicity of the ligustrazine-triterpenes derivatives and DDP. […] The cytotoxicity of the compounds was evaluated on five cancer cell lines (Bel-7402, HepG2, HT-29, Hela, MCF-7) by the standard MTT assay. […]
pIC50: −log10 of the molar value.
observationType: pIC50

Some entries whose results are on file:
# molecule, pIC50
measured = [
    ("Cc1nc(C)c(C(=O)OC2CCC3(C)C(CCC4(C)C3CC=C3C5C(C)C(C)CCC5(C(=O)O)CCC34C)C2(C)C)nc1C (centres unmarked) [Compound 2d]", 4.99),
    ("C=C(C)[C@@H]1CC[C@]2(C(=O)OCc3nc(C)c(C)nc3C)CC[C@]3(C)C(CCC4[C@@]5(C)CC[C@H](O)C(C)(C)C5CC[C@]43C)C12 (some centres unmarked) [Compound 4a]", "> 5.28"),
    ("Cc1nc(C)c(C(=O)OC2CCC3(C)C(CCC4(C)C3CC=C3C5C(C)C(C)CCC5(C(=O)OCc5ccccc5)CCC34C)C2(C)C)nc1C (centres unmarked) [Compound 2c]", "< 4.70"),
    ("Cc1nc(C)c(COC(=O)[C@@]2(C)CC[C@]3(C)CC[C@]4(C)C(=CC(=O)C5[C@@]6(C)CC[C@H](O)C(C)(C)C6CC[C@]54C)C3C2)nc1C (some centres unmarked) [Compound 3a]", "< 4.70"),
]

Which pIC50 is reported for this molecule? CC1(C)CC[C@]2(C(=O)O)CC[C@]3(C)C(=CC[C@@H]4[C@@]5(C)CC[C@H](O)C(C)(C)[C@@H]5CC[C@]43C)[C@@H]2C1 [OA, oleanolic acid, reference compound]
< 4.70

Fill in: pIC50 of Cc1nc(C)c(C(=O)OC2CCC3(C)C(CCC4(C)C3CC=C3C5CC(C)(C)CCC5(C(=O)OCc5ccccc5)CCC34C)C2(C)C)nc1C (centres unmarked) [Compound 1c] is ___
< 4.70

Can you share its pIC50? I mean this molecule: Cc1nc(C)c(COC(=O)[C@]23CCC(C)(C)CC2C2=CCC4[C@@]5(C)CC[C@H](O)C(C)(C)C5CC[C@@]4(C)[C@]2(C)CC3)nc1C (some centres unmarked) [Compound 1a]
4.99

Look up pIC50 for this molecule: Cc1nc(C)c(COC(=O)[C@]23CC[C@@H](C)[C@H](C)C2C2=CCC4[C@@]5(C)CC[C@H](OC(=O)c6nc(C)c(C)nc6C)C(C)(C)C5CC[C@@]4(C)[C@]2(C)CC3)nc1C (some centres unmarked) [Compound 2b]
< 4.70

Could you share which pIC50 value was measured for C=C(C)C1CCC2(C(=O)O)CCC3(C)C(CCC4C5(C)CCC(OC(=O)c6nc(C)c(C)nc6C)C(C)(C)C5CCC43C)C12 (centres unmarked) [Compound 4d] ?
4.87

// pIC50 lookup, key: C=C(C)[C@@H]1CC[C@]2(C(=O)OCc3nc(C)c(C)nc3C)CC[C@]3(C)C(CCC4[C@@]5(C)CC[C@H](OC(=O)c6nc(C)c(C)nc6C)C(C)(C)C5CC[C@]43C)C12 (some centres unmarked) [Compound 4b]
< 4.70

For Cc1nc(C)c(COC(=O)[C@]23CCC(C)(C)CC2C2=CCC4[C@@]5(C)CC[C@H](OC(=O)c6nc(C)c(C)nc6C)C(C)(C)C5CC[C@@]4(C)[C@]2(C)CC3)nc1C (some centres unmarked) [Compound 1b] , what is its reported pIC50?
< 4.70

====

- Tested on: HepG2 (human hepatocellular carcinoma)
- experimentDescription: MTT cytotoxicity assay, HepG2
- Assay type: cell-based
- testParameters: 72 h, maximal tested concentration 20.0 μM
Items are presented alongside their recorded IC50.
Field format: number, assumed µM, no unit text.

# compound, observed
measured = [
    ("C=C(C)[C@@H]1CC[C@]2(C(=O)OCc3nc(C)c(C)nc3C)CC[C@]3(C)C(CCC4[C@@]5(C)CC[C@H](O)C(C)(C)C5CC[C@]43C)C12 (stereo partly drawn)", 4.48),
]

API: the following record is the query input.
// query IC50 value for entry N.N.[Cl][Pt][Cl] [DDP, cisplatin, reference compound]
4.57

====

- Test system: HepG2 (human hepatocellular carcinoma)
- experimentDescription: MTT cytotoxicity assay, HepG2
- Format: cell-based
- testParameters: Homo sapiens, HepG2, 72 h, 72 h, maximal tested concentration 20.0 μM
Measured pIC50 of individual entries
Scale for pIC50: -log10 of concentration given in mol/L; no unit attached.

# compound, testTarget, pIC50
rows = [
    ("C=C(C)C1CCC2(C(=O)O)CCC3(C)C(CCC4C5(C)CCC(OC(=O)c6nc(C)c(C)nc6C)C(C)(C)C5CCC43C)C12 (stereo not drawn)", "HepG2 (human hepatocellular carcinoma)", 5.13),
]

Then this compound:
Given the compound C=C(C)[C@@H]1CC[C@]2(C(=O)OCc3nc(C)c(C)nc3C)CC[C@]3(C)C(CCC4[C@@]5(C)CC[C@H](OC(=O)c6nc(C)c(C)nc6C)C(C)(C)C5CC[C@]43C)C12 (stereo partly drawn) , what is its reported pIC50?
4.88

====

observationType: melting point

Take a look at these entries with their results.
# compound, melting point
data = [
    ("C=C(C)[C@@H]1CC[C@]2(C(=O)OCc3nc(C)c(C)nc3C)CC[C@]3(C)C(CCC4[C@@]5(C)CC[C@H](OC(=O)c6nc(C)c(C)nc6C)C(C)(C)C5CC[C@]43C)C12 (stereo partly drawn)", "142.1 to 142.9 °C"),
    ("Cc1nc(C)c(C(=O)OC2CCC3(C)C(CCC4(C)C3CC=C3C5CC(C)(C)CCC5(C(=O)O)CCC34C)C2(C)C)nc1C (stereo not drawn)", "289.7 to 290.5 °C"),
]

Okay, next one:
Given C=C(C)C1CCC2(C(=O)O)CCC3(C)C(CCC4C5(C)CCC(OC(=O)c6nc(C)c(C)nc6C)C(C)(C)C5CCC43C)C12 (stereo not drawn) , state its recorded melting point.
279.5 to 280.3 °C
